# Tested on: Proteus vulgaris
# assay name: Bactericidal activity against Proteus vulgaris ATCC 13315 after 24 hrs
# Format: functional
# protocol conditions: ATCC 13315, 24 h, read-out: MBC99.9
# MBC per entry

query smiles | experimental target | MBC / µg/mL
O=Cc1cn(-c2nc(-c3cc4cc(Br)cc(Br)c4oc3=O)cs2)nc1-c1ccccc1 | Proteus vulgaris | 240
Cc1ccc(-c2nn(-c3nc(-c4cc5ccccc5oc4=O)cs3)cc2C=O)cc1 | Proteus vulgaris | 300
O=Cc1cn(-c2nc(-c3cc4cc(Cl)cc(Cl)c4oc3=O)cs2)nc1-c1ccccc1 | Proteus vulgaris | 260
COc1cccc2cc(-c3csc(-n4cc(C=O)c(-c5ccc(Cl)cc5)n4)n3)c(=O)oc12 | Proteus vulgaris | 260
Cc1ccc(-c2nn(-c3nc(-c4cc5cc(Br)ccc5oc4=O)cs3)cc2C=O)cc1 | Proteus vulgaris | 240
O=Cc1cn(-c2nc(-c3cc4ccccc4oc3=O)cs2)nc1-c1ccccc1 | Proteus vulgaris | 200
O=Cc1cn(-c2nc(-c3cc4cc(Br)ccc4oc3=O)cs2)nc1-c1ccc(Cl)cc1 | Proteus vulgaris | 250
O=Cc1cn(-c2nc(-c3cc4cc(Br)ccc4oc3=O)cs2)nc1-c1ccccc1 | Proteus vulgaris | 250
O=Cc1cn(-c2nc(-c3cc4cc(Cl)ccc4oc3=O)cs2)nc1-c1ccc(Cl)cc1 | Proteus vulgaris | 260
